# TEST DETAILS: Determination of hygroscopic moisture
# Format: physicochemical
# DETAILS: 24 h; 25° C. thermostatic drier over saturated ammonium chloride solution; sodium salt
PARAMETER MEASURED: Hygroscopic moisture (%)
# number only, unit % dropped from output

[
  {
    "MOLECULE": "COCCCOc1ccnc(C[S@@+]([O-])c2nc3ccccc3[n-]2)c1C.[Na+] [Crystal form A, reference compound]",
    "PARAMETER MEASURED": "Hygroscopic moisture (%)",
    "ASSAY RESULT": 5.10
  },
  {
    "MOLECULE": "COCCCOc1ccnc(C[S@@+]([O-])c2nc3ccccc3[n-]2)c1C.[Na+] [Crystal form B]",
    "PARAMETER MEASURED": "Hygroscopic moisture (%)",
    "ASSAY RESULT": 5.18
  },
  {
    "MOLECULE": "COCCCOc1ccnc(C[S@@+]([O-])c2nc3ccccc3[n-]2)c1C.[Na+] [Crystal form C]",
    "PARAMETER MEASURED": "Hygroscopic moisture (%)",
    "ASSAY RESULT": 0.15
  }
]

# input for lookup
Exam item: Hello, please tell me recorded Hygroscopic moisture (%) for this one: COCCCOc1ccnc(C[S@@+]([O-])c2nc3ccccc3[n-]2)c1C.[Na+] [Amorphous form, reference compound]
Marked response: 21.60

----------
# TEST DETAILS: Determination of hygroscopic moisture
# Type: physicochemical
# DETAILS: 0 h; 25° C. thermostatic drier over saturated ammonium chloride solution; sodium salt
Measured Hygroscopic moisture (%) by item
# number only, unit % dropped from output

For orientation, consider the following solved cases.
[
  {
    "COMPOUND": "COCCCOc1ccnc(C[S@@+]([O-])c2nc3ccccc3[n-]2)c1C.[Na+] [Crystal form C]",
    "UNIT NAME": "%",
    "Hygroscopic moisture (%)": 0.11
  },
  {
    "COMPOUND": "COCCCOc1ccnc(C[S@@+]([O-])c2nc3ccccc3[n-]2)c1C.[Na+] [Amorphous form, reference compound]",
    "UNIT NAME": "%",
    "Hygroscopic moisture (%)": 6.60
  },
  {
    "COMPOUND": "COCCCOc1ccnc(C[S@@+]([O-])c2nc3ccccc3[n-]2)c1C.[Na+] [Crystal form A, reference compound]",
    "UNIT NAME": "%",
    "Hygroscopic moisture (%)": 4.66
  }
]

# input for lookup
Exam item: Hello, please tell me recorded Hygroscopic moisture (%) for this one: COCCCOc1ccnc(C[S@@+]([O-])c2nc3ccccc3[n-]2)c1C.[Na+] [Crystal form B]
Marked response: 4.72
